- Test Target: LH-RH receptors (Rattus norvegicus, UniProt P30969)
- Construct: from tissue; host or cells: rat pituitary membrane fraction (female Sprague Dawley)
- Sequence (P30969 1-327): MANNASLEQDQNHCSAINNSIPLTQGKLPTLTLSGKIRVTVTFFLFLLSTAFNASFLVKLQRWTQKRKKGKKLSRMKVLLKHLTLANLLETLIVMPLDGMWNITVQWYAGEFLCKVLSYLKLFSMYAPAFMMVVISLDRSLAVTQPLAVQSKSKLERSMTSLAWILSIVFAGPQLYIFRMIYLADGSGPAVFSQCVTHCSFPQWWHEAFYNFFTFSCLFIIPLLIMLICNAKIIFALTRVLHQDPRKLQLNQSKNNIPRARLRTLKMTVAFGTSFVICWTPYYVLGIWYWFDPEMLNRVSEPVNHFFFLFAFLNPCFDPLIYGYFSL
- Protocol Details: Total plasma testosterone in male Sprague-Dawley rats after subcutaneous injection
- Type: in vivo
- Condition Details: 30 nanograms/kg subcutaneous, plasma at two hours, male Sprague-Dawley rats
Measurement Type: Total testosterone (ng/mL)
Kindly provide the numeric value in ng/mL only, without the unit symbol.

Query block: Returns the measured Total testosterone for the input molecule. Input: CC(C)C[C@H](NC(=O)[C@@H](Cc1c[nH]c2ccccc12)NC(=O)[C@H](Cc1ccc(O)cc1)NC(=O)[C@H](CO)NC(=O)[C@H](Cc1c[nH]c2ccccc12)NC(=O)[C@H](Cc1c[nH]cn1)NC(=O)[C@@H]1CCC(=O)N1)C(=O)N[C@@H](CCCNC(=N)N)C(=O)N1CCC[C@H]1C(=O)NCC(N)=O [Tryptorelin]
Result block: 12.1

Query block: Returns the measured Total testosterone for the input molecule. Input: CCNC(=O)[C@@H]1CCCN1C(=O)[C@H](CCCNC(=N)N)NC(=O)[C@H](CC(C)C)NC(=O)[C@@H](Cc1cn(Cc2ccccc2)cn1)NC(=O)[C@H](Cc1ccc(O)cc1)NC(=O)[C@H](CO)NC(=O)[C@H](Cc1c[nH]c2ccccc12)NC(=O)[C@H](Cc1cnc[nH]1)NC(=O)[C@@H]1CCC(=O)N1 [Histrelin]
Result block: 12.7

Query block: Returns the measured Total testosterone for the input molecule. Input: CCNC(=O)[C@@H]1CCCN1C(=O)[C@H](CCCNC(=N)N)NC(=O)[C@H](CC(C)C)NC(=O)[C@@H](COC(C)(C)C)NC(=O)[C@H](Cc1ccc(O)cc1)NC(=O)[C@H](CO)NC(=O)[C@H](Cc1c[nH]c2ccccc12)NC(=O)[C@H](Cc1cnc[nH]1)NC(=O)[C@@H]1CCC(=O)N1 [Buserelin]
Result block: 15.4

Query block: Returns the measured Total testosterone for the input molecule. Input: CCNC(=O)[C@@H]1CCCN1C(=O)[C@H](CCCNC(=N)N)NC(=O)[C@H](CC(C)C)NC(=O)[C@@H](CC(C)C)NC(=O)[C@H](Cc1ccc(O)cc1)NC(=O)[C@H](CO)NC(=O)[C@H](Cc1c[nH]c2ccccc12)NC(=O)[C@H](Cc1c[nH]cn1)NC(=O)[C@@H]1CCC(=O)N1 [Leuprorelin]
Result block: 11.9

Query block: Returns the measured Total testosterone for the input molecule. Input: CC(C)C[C@H](NC(=O)[C@@H](COC(C)(C)C)NC(=O)[C@H](Cc1ccc(O)cc1)NC(=O)[C@H](CO)NC(=O)[C@H](Cc1c[nH]c2ccccc12)NC(=O)[C@H](Cc1cnc[nH]1)NC(=O)[C@@H]1CCC(=O)N1)C(=O)N[C@@H](CCCNC(=N)N)C(=O)N1CCC[C@H]1C(=O)NNC(N)=O [Goserelin]
Result block: 15.0

====

- Test Target: LH-RH receptors (Rattus norvegicus)
- Construct: from tissue; host or cells: rat pituitary membrane fraction (female Sprague Dawley)
- Sequence (P30969 1-327): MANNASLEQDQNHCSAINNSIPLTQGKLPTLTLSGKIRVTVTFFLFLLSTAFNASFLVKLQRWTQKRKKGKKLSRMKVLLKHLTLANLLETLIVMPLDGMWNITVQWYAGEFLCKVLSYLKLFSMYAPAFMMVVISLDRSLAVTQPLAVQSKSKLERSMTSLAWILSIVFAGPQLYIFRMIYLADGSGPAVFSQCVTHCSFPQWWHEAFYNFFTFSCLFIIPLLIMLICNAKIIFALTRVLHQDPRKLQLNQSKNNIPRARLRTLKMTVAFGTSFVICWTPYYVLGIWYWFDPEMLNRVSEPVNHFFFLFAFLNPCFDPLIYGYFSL
- Protocol Details: Affinity for LH-RH receptors: [125I]-buserelin binding to rat pituitary membranes
- Condition Details: 2 hours at 4° C., 20 to 70 μM [125I]-buserelin, Ki from IC50 by Cheng-Prusoff, read-out: pKi (affinity for LH-RH receptors) (converted)
Where a SMILES comes first, the peptide text is derived from it. [ ]: non-standard residue; d: D form. The star is where a group is joined. dPhe(4-Cl) = N[C@H](Cc1ccc(Cl)cc1)C(=O)O; d2Nal = N[C@H](Cc1ccc2ccccc2c1)C(=O)O; Lys(iPr) = CC(C)NCCCC[C@H](N)C(=O)O; d3Pal = N[C@H](Cc1cccnc1)C(=O)O; Nicotinoyl = O=C(c1cccnc1)*
Measurement Type: Ki (nM)
Kindly provide the numeric value in nM only, without the unit symbol.

Query block: Query the reported Ki for LH-RH receptors (Rattus norvegicus); item: CCNC(=O)[C@@H]1CCCN1C(=O)[C@H](CCCNC(=N)N)NC(=O)[C@H](CC(C)C)N1CC[C@@]2(CCCN2C(=O)[C@H](Cc2ccc(O)cc2)NC(=O)[C@H](CO)NC(=O)[C@H](Cc2c[nH]c3ccccc23)NC(=O)[C@H](Cc2c[nH]cn2)NC(=O)CN(C)C(C)=O)C1=O [Example 10]
Result block: 6.17

Query block: Query the reported Ki for LH-RH receptors (Rattus norvegicus); item: CC(=O)N[C@H](Cc1ccc2ccccc2c1)C(=O)N[C@H](Cc1ccc(Cl)cc1)C(=O)N[C@H](Cc1cccnc1)C(=O)N[C@@H](CO)C(=O)N[C@@H](CCCCNC(=O)c1cccnc1)C(=O)N[C@H](CCCCNC(=O)c1cccnc1)C(=O)N[C@@H](CC(C)C)C(=O)N[C@@H](CCCCNC(C)C)C(=O)N1CCC[C@H]1C(=O)N[C@H](C)C(N)=O [Antide] (Ac-[d2Nal][dPhe(4-Cl)][d3Pal]SK(Nicotinoyl)[dK](Nicotinoyl)L[Lys(iPr)]P[dA]-NH2; N-terminus and C-terminus assumed)
Result block: 0.603

Query block: Query the reported Ki for LH-RH receptors (Rattus norvegicus); item: CCNC(=O)[C@@H]1CCCN1C(=O)[C@H](CCCNC(=N)N)NC(=O)[C@H](CC(C)C)N1CC[C@@]2(CCCN2C(=O)[C@H](Cc2ccc(O)cc2)NC(=O)[C@H](CO)NC(=O)[C@H](Cc2c[nH]c3ccccc23)NC(=O)[C@H](Cc2c[nH]cn2)NC(=O)[C@@H]2CCC(=O)N2)C1=O [Example 9, pGlu-His-Trp-Ser-Tyr-SPL-Leu-Arg-Pro-NEt]
Result block: 1.15

Query block: Query the reported Ki for LH-RH receptors (Rattus norvegicus); item: CCNC(=O)[C@@H]1CCCN1C(=O)[C@H](CCCNC(=N)N)NC(=O)[C@@H](N1CC[C@@]2(CCCN2C(=O)[C@H](Cc2ccc(O)cc2)NC(=O)[C@H](CO)NC(=O)[C@H](Cc2c[nH]c3ccccc23)NC(=O)[C@H](Cc2c[nH]cn2)NC(=O)[C@@H]2CCC(=O)N2)C1=O)C(C)(C)C [Example 17, pGlu-His-Trp-Ser-Tyr-SPL-Tle-Arg-Pro-NEt]
Result block: 1.78

Query block: Query the reported Ki for LH-RH receptors (Rattus norvegicus); item: CCCC[C@@H](C(=O)N[C@@H](CCCNC(=N)N)C(=O)N1CCC[C@H]1C(=O)NCC)N1CC[C@@]2(CCCN2C(=O)[C@H](Cc2ccc(O)cc2)NC(=O)[C@H](CO)NC(=O)[C@H](Cc2c[nH]c3ccccc23)NC(=O)[C@H](Cc2c[nH]cn2)NC(=O)[C@@H]2CCC(=O)N2)C1=O [Example 18, pGlu-His-Trp-Ser-Tyr-SPL-Nle-Arg-Pro-NEt]
Result block: 2.04

Query block: Query the reported Ki for LH-RH receptors (Rattus norvegicus); item: CCNC(=O)[C@@H]1CCCN1C(=O)[C@H](CCCNC(=N)N)NC(=O)[C@H](CC(C)C)N1CC[C@@]2(CCCN2C(=O)[C@H](Cc2ccc(O)cc2)NC(=O)[C@H](CO)NC(=O)[C@H](Cc2cccc3ccccc23)NC(=O)[C@H](Cc2c[nH]cn2)NC(=O)[C@@H]2CCC(=O)N2)C1=O [Example 11]
Result block: 0.427

From: patent US6153587A
